test system: MCF7 breast; assay: NCI-60 one-dose screen, 48 h (100 = growth as untreated, 0 = no growth, -100 = all killed); conditions: 10 µM
This is part of a sample that, as a whole, favours compounds with a hit. Of some 83,000 tested, about 20% had one in any assay.
# label = fulfilled if growth < 80% else not fulfilled

Query string: Lab note: growth threshold 80%. Does this molecule come in strictly under it? CCCCN(CCCC)c1ccc(C(=NC(C)CCCN(CC)CC)c2ccc(N(C)C)cc2)cc1 (stereo unspecified)
Result string: fulfilled

Query string: Does COc1ccc2nc(NC(=O)Nc3c(F)cccc3F)sc2c1 have growth strictly under 80%?
Result string: not fulfilled

Query string: Is 80% strictly greater than the molecule's reported growth? molecule: CN(C)CCCN1c2ccccc2Sc2ccc(C(F)(F)F)cc21
Result string: fulfilled

Query string: Is it true that growth reported for Cn1c([N+](=O)[O-])cnc1/C=C1\Oc2ccc(Br)cc2C1=O is less than 80%?
Result string: fulfilled

Query string: Hello, I'm reviewing records and need to know if growth of CCCCCN(CCCCC)C(C)C(O)c1ccc2cc(Cl)c3ccccc3c2c1 (stereo unspecified) is below 80%. Could you check?
Result string: not fulfilled

Query string: I'd appreciate it if you could check whether C[N+]1=C(/C=C/c2ccc(I)cc2)C(C)(C)c2ccccc21 has growth smaller than 80%.
Result string: not fulfilled

Query string: Consider CCOC(=O)c1sc(Nc2ncccn2)nc1-c1ccccn1 . Does its growth lie strictly below 80%?
Result string: fulfilled

Query string: Say whether its growth is strictly beneath 80%. Entry: CCCCCC(CCC)COC(=O)c1ccc(OC)cc1 (stereo unspecified)
Result string: not fulfilled

Query string: Quick check: does Cc1ncc([N+](=O)[O-])n1CCOc1ccc(C(=O)/C=C/c2ccc(C(F)(F)F)cc2)cc1 have growth under 80%?
Result string: fulfilled

Query string: State whether 80% exceeds growth recorded for Oc1ccc(Cn2cc3c(c2-c2ccccc2)CCc2cnoc2-3)cc1 .
Result string: not fulfilled

----------
test system: OVCAR-5 ovarian; assay: NCI-60 one-dose screen, 48 h (100 = growth as untreated, 0 = no growth, -100 = all killed); conditions: 10 µM
The panel holds about 83,000 compounds, 20% with a hit somewhere; the sample as a whole holds those more often.
assay_endpoint: growth (%)
Express your answer in %, writing the number without its unit.

Query string: Item under review: COc1ccc(Cn2cc3c(c2-c2cc(OC)c(OC)c(OC)c2)CCc2cnoc2-3)cc1N . Reported growth?
Result string: 52.4

Query string: I'd like to know its growth. The compound in question is CCOC(=O)C1=C(Nc2ccc(OC)cc2)C(N)=NC1=N
Result string: 65.6

Query string: Using the record for c1ccc(OCCC[P+](c2ccccc2)(c2ccccc2)c2ccccc2)cc1 , report its growth.
Result string: 29

Query string: What does the record list as growth for CCCc1ccnc(NS(=O)(=O)c2ccc(N)cc2)n1 ?
Result string: 117

Query string: Data request, read-out growth, for Oc1[nH]c2ccccc2c1/C=c1/cc2c(c(-c3ccc(C(F)(F)F)cc3)n1)=Nc1ccccc1-2
Result string: 70.5

----------
tested on: HCT-15 colon; assay: NCI-60 one-dose screen, 48 h (100 = growth as untreated, 0 = no growth, -100 = all killed); conditions: 10 µM
The panel holds about 83,000 compounds, 20% with a hit somewhere; the sample as a whole holds those more often.
assay_endpoint: growth (%)
Quick reminder: number only, in %, skip the unit.

Query string: Which growth reading was recorded for the compound CCCCCC(CCC)COC(=O)c1ccc(OC)cc1 (configuration not stated) ?
Result string: 99

Query string: Quick one: growth for C#Cc1ccc(-n2c(/C=C/c3cc(OC)c(OC)c(OC)c3)nc3ncccc3c2=O)cc1 ?
Result string: 48.6

Query string: Please look up its growth: COc1cccc(C(=O)NNc2nc(N3CCN(C4CCCCC4)CC3)nc(N3CCN(C(c4ccccc4)c4ccccc4)CC3)n2)c1
Result string: 25.4

Query string: Given the compound C[N+]1(CC2CO2)CCCCCC1 (configuration not stated) , what is its reported growth?
Result string: 94.9

Query string: Entry under review: N#CCC1CCCC1 . Reported growth?
Result string: 99.7

Query string: Dear colleague, I am looking for the recorded growth of the following compound: O=C(O)CCCCSCCCCC(=O)O
Result string: 106

Query string: Would you kindly share the measured growth for CC1=CC2OC34COC3CC(OC(=O)C(F)(F)F)C4(C)C2(C)CC1 (configuration not stated) ?
Result string: 97.4

----------
tested on: IGROV1 ovarian; test: NCI-60 one-dose screen, 48 h; settings: 10 µM
The panel holds about 83,000 compounds, 20% with a hit somewhere; the sample as a whole holds those more often. The source made the active and inactive calls. The calls were made as follows: active = growth percent below 10; inactive = the rest.
Would you mind answering with one of these outcomes? true (active), false (inactive)

Query string: Hi, sorry to bother you, what did the test record for CC1(C)CC(=O)c2c(nc3ccc(Cl)cc3c2-c2ccccc2)C1 ?
Result string: false

Query string: GET /call?item= OC(CNC1CCCC1)Cn1c2ccccc2c2ccccc21 (centres undefined) returns the recorded outcome of this test.
Result string: false

Query string: Dear colleague, could you share the recorded outcome for N#Cc1cnc2ccc(NCc3cnc[nH]3)cc2c1Nc1ccc(F)c(Cl)c1 when you have a moment?
Result string: false

Query string: Write down the call the test reported for this compound. Item: CN(C)c1ccc2cc(-c3cc4c(oc3=O)-c3ccccc3OC4O)c(=O)oc2c1 (centres undefined)
Result string: true

Query string: What call does the record list for CCCCC(=O)N(c1ccc(Nc2c3ccccc3nc3cc([N+](=O)[O-])ccc23)cc1)S(C)(=O)=O ?
Result string: false

Query string: Given CCOC(=O)CNC(=O)Nc1ccc(Oc2ccc(NC(=O)NCC(=O)OCC)cc2)cc1 , state the outcome it received in this test.
Result string: false

Query string: Fill in: this test's call for O=C(/C=C/c1ccc(Cl)cc1)c1ccc(Br)cc1 is ___
Result string: false

Query string: Could you please tell me the result logged for CCCCCCCC/C=C/CCCCCCCCC1=NCCN1CCO in this assay?
Result string: false

Query string: Please let me know the test result on file for Oc1[nH]c2ccccc2c1/C=c1/cc2c(c(-c3ccc(C(F)(F)F)cc3)n1)=Nc1ccccc1-2 .
Result string: false

Query string: Tell me the assay call for Cc1cc(C)c(C(=O)OC(C)CNC2CCCCC2)c(C)c1 (centres undefined) please.
Result string: false

Query string: Recorded test outcome, item CCOC(=O)c1cc2c(n1Cc1cc(OC)cc(OC)c1)-c1oncc1CC2
Result string: false

Query string: Status in this test for NC(N)=NS(=O)(=O)c1ccc(Nc2ccc3nnc(-c4ccncc4)n3n2)cc1 ?
Result string: false

Query string: Any idea what this test logged for COc1cc2ccnc(C=O)c2cc1OC ?
Result string: false

Query string: Lab log entry: C=CCn1ccc(=O)nc1SC — outcome as called in the assay?
Result string: false

Query string: State the result this test recorded for C=CCOc1ccc2c(c1)CC=C1[C@@H]2CC[C@]2(C)C(=O)/C(=N/O)C[C@@H]12 .
Result string: false

Query string: For CCOC(=O)Cn1nnc(-c2ccc(OCc3ccccc3F)cc2)n1 , which call appears in the assay record?
Result string: false

Query string: What did this assay record as the result for COc1ccc(-c2nc(-c3nc4ccc(OC)cc4[nH]3)c3ccccn23)cc1 ?
Result string: false

Query string: Tell me the assay call for Cn1cnc([N+](=O)[O-])c1Sc1nnc(-c2ccccc2)c(-c2ccccc2)n1 please.
Result string: false

Query string: What did this assay record as the result for CCc1ccc(-c2nnc(COc3ccc(-c4nc5ccc(C)cc5[nH]4)cc3OC)o2)cc1 ?
Result string: false

Query string: Could you kindly confirm the outcome this assay logged for O=[N+]([O-])c1ccc(-c2nc(-c3ccccc3)c(-c3ccccc3)n2-c2ccccc2)cc1 ?
Result string: true

Query string: Recorded test outcome, item COc1ccc(-c2nc(-c3ccccc3)c(-c3ccccc3)[nH]2)cc1OC1CCCC1
Result string: false

Query string: Please state the recorded outcome for this compound: CCSc1nc2c([nH]1)c(=O)n(C)c(=S)n2C
Result string: false

Query string: Test call for this compound, please: COc1ccc(-c2n/c(=C\c3c(O)[nH]c4ccccc34)cc3c2=Nc2ccccc2-3)cc1
Result string: false

Query string: Test call for this compound, please: CCCC(C)c1ccc(OCCCCCCN2CCNCC2)cc1 (centres undefined)
Result string: false

Query string: Give the logged outcome of this assay for the following compound: Cc1ccc([P+](Cc2ccccc2)(c2ccccc2)c2ccccc2)cc1
Result string: true

Query string: What did this assay record as the result for CCOC(=O)c1sc(Nc2ncccn2)nc1-c1ccccn1 ?
Result string: false

Query string: Lab log entry: CCCCCCCCCCCCCC[n+]1ccc(C)cc1 — outcome as called in the assay?
Result string: true

Query string: Hi, sorry to bother you, what did the test record for C[N+]1=C(/C=C/c2ccc(I)cc2)C(C)(C)c2ccccc21 ?
Result string: false

Query string: Given CC(=O)OC1Oc2ccccc2-c2oc(=O)c(-c3ccc(F)cc3)cc21 (centres undefined) , state the outcome it received in this test.
Result string: false

Query string: Each compound tested received a call. Report the one for O=C(Nc1ccc(OS(=O)(=O)Cc2ccccc2)cc1)C12CC3CC(CC(C3)C1)C2 .
Result string: false

Query string: Write down the call the test reported for this compound. Item: CC(=O)Nc1nc(C)c(C(=O)N/N=C/c2cccn2C)s1
Result string: true

Query string: Hey, what did the test say about Cc1ccc(NS(=O)(=O)c2ccccc2)c(NS(=O)(=O)c2ccccc2)c1 ?
Result string: false

Query string: Could you please tell me the result logged for CCOC(=O)c1ccc(NC(=O)Nc2nncs2)cc1 in this assay?
Result string: false

Query string: Please indicate how the test categorized NC1CCC(Nc2nc(NCc3ccc(-c4ccccc4O)nc3)c3ncn(C4CCCC4)c3n2)CC1 (centres undefined) .
Result string: true

Query string: Write down the call the test reported for this compound. Item: N#C/C(=C\N1C(=O)/C(=C/c2cccc([N+](=O)[O-])c2)SC1=S)c1nc2ccccc2s1
Result string: false

Query string: // return assay outcome for CCN(CC)CC(O)CNc1ccnc2cc(Cl)c(Cl)cc12 (centres undefined)
Result string: false

Query string: Status in this test for COc1cc(C2C=C(c3ccc(Cl)cc3)N=C3SC(C)=CN32)cc(OC)c1OC (centres undefined) ?
Result string: false

Query string: What outcome does the record of this test show for CCN(CC)c1ccc(/C=C/C2=[N+](C)c3ccccc3C2(C)C)c(C)c1 ?
Result string: false

Query string: Fill in: this test's call for Nc1cc(O)cc(O)c1 is ___
Result string: false

Query string: Could you please tell me the result logged for O=C1/C(=C/c2ccc(O)cc2O)N=C2SCCCN12 in this assay?
Result string: false

Query string: Recorded call for COc1ccccc1Cn1cc2c(c1-c1ccccc1)CCc1cnoc1-2 ?
Result string: false

Query string: Returns: the outcome recorded for COc1ccc(OC)c([N+](=O)[O-])c1C=O in this assay.
Result string: false

Query string: Tell me the recorded outcome of this test for CCC(OC(=O)CC(C)C)c1ccccc1 (centres undefined) .
Result string: false

Query string: How did this test come out for C#CCNCCCN1C(=O)c2ccc3c4c(ccc(c24)C1=O)C(=O)N(CCCNCC#C)C3=O ?
Result string: true
